Sourced from patent US20160319277A1

test system: HEK-CMV-Luc2-Hygro cells; experiment: High-throughput genome-wide siRNA screen and validation screen for luciferase expression; type: cell-based, human; settings: Table 3; viable cell density as % of negative control, primary screen, 72 h
recorded metric: VIA
Answer with a number only.

### Prompt Which VIA is listed for 48 (GCAAUGCUUGCAAAACUCATT; chemistry not given here; listed as Homo sapiens) [compound 48] ?
### Response 90.98

### Prompt Then what about the substance 46 (CUCUUAUGGUAACCAAUGATT; chemistry not given here; listed as Homo sapiens) [compound 46] ?
### Response 91.56

### Prompt Then what about the substance 52 (GGAAGAACGUCUUGCACAATT; chemistry not given here; listed as Homo sapiens) [compound 52] ?
### Response 85.47

### Prompt Then what about the substance 85 (CUGCCGCAACAAUAAGAAATT; chemistry not given here; listed as Homo sapiens) [compound 85] ?
### Response 82.95

### Prompt Then what about the substance 72 (GCUCCUCUGUUACCACAGATT; chemistry not given here; listed as Homo sapiens) [compound 72] ?
### Response 91.53

### Prompt Then what about the substance 91 (CAGCAAACCUUUGACCAGATT; chemistry not given here; listed as Homo sapiens) [compound 91] ?
### Response 55.4

### Prompt Then what about the substance 92 (CCAGUUCGACCUGAACAAATT; chemistry not given here; listed as Homo sapiens) [compound 92] ?
### Response 85.75

### Prompt Then what about the substance 83 (GCGGAAAAGGUAUCCCUCATT; chemistry not given here; listed as Homo sapiens) [compound 83] ?
### Response 80.17

### Prompt Then what about the substance 56 (CAACGGGACUAUUAUGAUATT; chemistry not given here; listed as Homo sapiens) [compound 56] ?
### Response 97.39
